Please respond with reported binding signal for every item in the list.
Molecular target: OsWRKY34 (Oryza sativa, UniProt Q0JBA9 1-250)
Sequence (Q0JBA9 entry or part of it): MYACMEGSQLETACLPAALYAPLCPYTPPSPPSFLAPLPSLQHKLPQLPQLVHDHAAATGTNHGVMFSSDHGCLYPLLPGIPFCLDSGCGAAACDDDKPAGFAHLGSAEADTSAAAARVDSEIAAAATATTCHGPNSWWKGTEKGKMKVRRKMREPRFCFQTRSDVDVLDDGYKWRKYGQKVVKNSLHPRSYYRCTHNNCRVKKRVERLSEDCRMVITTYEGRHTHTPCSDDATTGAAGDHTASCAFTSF
Assay: protein-binding microarray (RPBM); PBS, 2% BSA, 51.3 ng/ul salmon testes DNA, 50 uM zinc acetate, 200 nM TF, 25 C, 1 h; high values mean tight binding
Conditions: protein: recombinant; tags: N-terminal polyhistidine and DsRed monomer fusion (pET32a); label: CyDye5-dUTP incorporated in the synthesized complementary strand; 3' TTTTT single-stranded linker to array surface; dsDNA, one strand shown
Over roughly 68,000 sequences, “fluorescence intensity (a.u.)” has its median near 9,100; the highest 2% begin near 16,000. This is one part of a sample in which the highest values are shown more often than they occur.

Provide one value: measured binding signal of CTCAGTATTGGGTTGGGTGGTGGTGGCGGCGGTGGCAGTGCGGAGTCACCTAGTGCAG
13700 fluorescence intensity (a.u.)

Provide one value: measured binding signal of GCGCTGTGGTCCCGGCGCCGGCAGTGGTTGCTTCTGCGCGCGGAGTCACCTAGTGCAG
8560 fluorescence intensity (a.u.)

Provide one value: measured binding signal of CAGTTTCATCCCTAGGTGGTGGTGGCGGTGCGTGGAGTGACGGAGTCACCTAGTGCAG
16600 fluorescence intensity (a.u.)

Provide one value: measured binding signal of AAGGGTGGGCGTGATGGAGTTTGGATGGGCCCTGCGACGGCGGAGTCACCTAGTGCAG
9160 fluorescence intensity (a.u.)

Provide one value: measured binding signal of GGAGGGCGGTGGCGAGGGCGGCGGTGGCGCGGATGCTGGACGGAGTCACCTAGTGCAG
8960 fluorescence intensity (a.u.)

Provide one value: measured binding signal of GTACATGCATTATCCATATCTCTAAATTTAGCAATCACTTCGGAGTCACCTAGTGCAG
9480 fluorescence intensity (a.u.)

Provide one value: measured binding signal of GGCGGTGGCGGTGACGGTGGAGGTGGAGGCGGTGTGGCATCGGAGTCACCTAGTGCAG
8420 fluorescence intensity (a.u.)

Provide one value: measured binding signal of GAGGGGAGGGAGAGGTCGGAGATGGTTACCGGTGGGGAAGCGGAGTCACCTAGTGCAG
12300 fluorescence intensity (a.u.)

Provide one value: measured binding signal of TTTCTGTTTAACGTCAACCCGGCTGTTTTCGCCCGGTCAACGGAGTCACCTAGTGCAG
9040 fluorescence intensity (a.u.)

---

Molecular target: OsWRKY34 (Oryza sativa, UniProt Q0JBA9 1-250)
Test: protein-binding microarray (RPBM); PBS, 2% BSA, 51.3 ng/ul salmon testes DNA, 50 uM zinc acetate, 200 nM TF, 25 C, 1 h; high values mean tight binding
Conditions: protein: recombinant; tags: N-terminal polyhistidine and DsRed monomer fusion (pET32a); label: CyDye5-dUTP incorporated in the synthesized complementary strand; 3' TTTTT single-stranded linker to array surface; dsDNA, one strand shown
In all, about 68,000 sequences were measured (“fluorescence intensity (a.u.)”: median about 9,100, highest 2% from about 16,000 on). What follows is part of a selection rich in the highest values, with near analogues and random picks from the rest.
Please respond with reported binding signal for every item in the list.

Provide one value: measured binding signal of CGTTGATTTGGTTTGGGTTAGTTATGGGTTTGATTTTTTTCGGAGTCACCTAGTGCAG
20600 fluorescence intensity (a.u.)

Provide one value: measured binding signal of ATTTTTTTCGGTTTGGTTGATTTTATTGAGTTACATTTACCGGAGTCACCTAGTGCAG
10900 fluorescence intensity (a.u.)

Provide one value: measured binding signal of GTTGCCCTTTTGCTCCTGTTGTCTTCTCCGCTCCTGTCGTCGGAGTCACCTAGTGCAG
9800 fluorescence intensity (a.u.)

Provide one value: measured binding signal of ATCACCTTCACGTTCCGAGATGTGGCACGAATCCCGAGGACGGAGTCACCTAGTGCAG
8070 fluorescence intensity (a.u.)

Provide one value: measured binding signal of TGGGGATGGCGGAGGTTAGCGGCGCGCTTTTTTTTCTATTCGGAGTCACCTAGTGCAG
14500 fluorescence intensity (a.u.)

Provide one value: measured binding signal of GGGAGTGTGGAGGTGTTGTGCTGCGGCGTGGGTGTGTTGGCGGAGTCACCTAGTGCAG
8640 fluorescence intensity (a.u.)

Provide one value: measured binding signal of CGGCGGCGGAGGAGGAGGAGGAGGAGGGCGCGGGGCGGCGCGGAGTCACCTAGTGCAG
21700 fluorescence intensity (a.u.)

Provide one value: measured binding signal of ACATTAACTAAATGGTGGAGGGCAGGGGTTCGTCTTTCTTCGGAGTCACCTAGTGCAG
13600 fluorescence intensity (a.u.)

Provide one value: measured binding signal of ACGACGAGGTCGCTTTTTTCTTGTTGGGCTGGGCTGGGATCGGAGTCACCTAGTGCAG
21800 fluorescence intensity (a.u.)

Provide one value: measured binding signal of TTCTTTTTTTGGCTTCCTTTTTTTTGTGTGTATATATGTACGGAGTCACCTAGTGCAG
13700 fluorescence intensity (a.u.)

Provide one value: measured binding signal of GCCTCTCGTGGGCCGTCGCCGCCCACCCGCCCGGACACGTCGGAGTCACCTAGTGCAG
8380 fluorescence intensity (a.u.)

Provide one value: measured binding signal of GTCAAACATCAACTTTTCCGTCACATCAAATGTTTGGACACGGAGTCACCTAGTGCAG
8670 fluorescence intensity (a.u.)

Provide one value: measured binding signal of TGTACTGTAGGGGTGGGATTGTGATTGGAAAATGAATGAACGGAGTCACCTAGTGCAG
18600 fluorescence intensity (a.u.)

Provide one value: measured binding signal of GGCTTTAATTGATCACTATGAATACTTGGCTTGTTGTCATCGGAGTCACCTAGTGCAG
9040 fluorescence intensity (a.u.)

Provide one value: measured binding signal of GAGGCCGGGGTCGGGGCGAGCGAGGCGAGAGGGGAGGAGGCGGAGTCACCTAGTGCAG
8910 fluorescence intensity (a.u.)

Provide one value: measured binding signal of GGGTTTTTGGTTTTGGTTTTGATTTTGATTTTGATTTTGACGGAGTCACCTAGTGCAG
16400 fluorescence intensity (a.u.)

Provide one value: measured binding signal of GTGTGTGCCTCCTTTTCTCTTCTTCAGTTTTCAACTCAAACGGAGTCACCTAGTGCAG
9440 fluorescence intensity (a.u.)

Provide one value: measured binding signal of CAAACTTCTAATTTTTCCGTCACATCAAATGTTTGGATATCGGAGTCACCTAGTGCAG
34900 fluorescence intensity (a.u.)

Provide one value: measured binding signal of TGTGCCTGCCGACTCGCCCACGCAACTCCGACTCTTTCCTCGGAGTCACCTAGTGCAG
13500 fluorescence intensity (a.u.)

Provide one value: measured binding signal of TGCCATCTCCTTCGCCATTGGAGCTCACCACACACTCGCTCGGAGTCACCTAGTGCAG
9660 fluorescence intensity (a.u.)

Provide one value: measured binding signal of TCTTTTGTATAGCACTGTACCGTATACAACACTGAATACACGGAGTCACCTAGTGCAG
8080 fluorescence intensity (a.u.)

Provide one value: measured binding signal of GGCACGGTTTGAACGCATTACCCATTCCCCGTTTGACTTCCGGAGTCACCTAGTGCAG
12800 fluorescence intensity (a.u.)

Provide one value: measured binding signal of AGTCCCAAGTCACAACTGACAACAAGGCAACTACTACTACCGGAGTCACCTAGTGCAG
8360 fluorescence intensity (a.u.)

Provide one value: measured binding signal of GTGATTGGATGGGTAGTGGAGACAGGTGGGAAAAATGAATCGGAGTCACCTAGTGCAG
8510 fluorescence intensity (a.u.)

Provide one value: measured binding signal of GGCGTGTTGTGTTCGGGTGGGTGCTGCGCAGGCTGCTGTACGGAGTCACCTAGTGCAG
17300 fluorescence intensity (a.u.)

Provide one value: measured binding signal of AATCTACACTAATTCTTCTGGTCTACACATTAAGTTATGACGGAGTCACCTAGTGCAG
8670 fluorescence intensity (a.u.)

Provide one value: measured binding signal of TTTCTTTCTTTCTTTCTTGGGATCTTTTCCTTCTTTTTTTCGGAGTCACCTAGTGCAG
12600 fluorescence intensity (a.u.)

Provide one value: measured binding signal of ATTTTGCATGGGGCATGTGTGAAGTGTCCTACTAAATTTTCGGAGTCACCTAGTGCAG
9350 fluorescence intensity (a.u.)

Provide one value: measured binding signal of CCTTAGTCAGCCTCTGCTTCTGCTCCGTGCTCGCCGGCGCCGGAGTCACCTAGTGCAG
12600 fluorescence intensity (a.u.)

Provide one value: measured binding signal of TTCTTCTAGAGGAGGAGGAGGCGGCGGGGCGGCGGGCGAGCGGAGTCACCTAGTGCAG
17300 fluorescence intensity (a.u.)
